- target system: T1, human IL1RAP on the cell surface (human, UniProt Q9NPH3 21-570)
- T1 sequence (looked up): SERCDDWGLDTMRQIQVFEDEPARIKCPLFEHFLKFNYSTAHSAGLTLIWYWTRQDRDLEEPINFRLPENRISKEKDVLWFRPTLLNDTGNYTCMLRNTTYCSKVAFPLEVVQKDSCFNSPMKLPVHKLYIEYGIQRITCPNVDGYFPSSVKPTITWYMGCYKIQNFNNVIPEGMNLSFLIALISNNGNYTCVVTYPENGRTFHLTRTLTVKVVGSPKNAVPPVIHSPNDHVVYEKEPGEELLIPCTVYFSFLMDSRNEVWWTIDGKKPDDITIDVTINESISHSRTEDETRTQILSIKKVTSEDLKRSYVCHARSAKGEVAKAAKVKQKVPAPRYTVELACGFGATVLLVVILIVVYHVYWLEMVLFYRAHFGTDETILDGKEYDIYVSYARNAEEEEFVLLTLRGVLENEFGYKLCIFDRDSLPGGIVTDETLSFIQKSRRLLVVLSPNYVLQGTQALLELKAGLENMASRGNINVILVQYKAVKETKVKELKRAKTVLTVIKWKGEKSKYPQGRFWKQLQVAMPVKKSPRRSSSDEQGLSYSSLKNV
- protocol summary: cell-based or functional assay
readout type: IC50 of IL-1β signaling (HEK-Blue assay) (nM)
Reply with just the number (in nM).

GET /values?readout=IC50 of IL-1β signaling (HEK-Blue assay)&item= h48D2 VH3:VL5 (antibody, human IgG1, kappa, L234A L235A, V domains shown, Humanized; also called VL5:VH3) VH: EVQLLESGGGLVLPGGSLRLSCAASGPSLSHFDITWVRQAPGKGLEWVSTISPGVSTYYASWAKSRFTISRDNSKNTLYLQMSSLRAEDTAVYYCARGGVGSSWKAFDLWGLGTTVTVSS VL: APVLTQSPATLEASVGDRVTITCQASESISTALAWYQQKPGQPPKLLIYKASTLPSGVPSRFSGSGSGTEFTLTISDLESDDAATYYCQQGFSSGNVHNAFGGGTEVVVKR
9.87

Try the binder h48D2 VH2:VL2 (antibody, human IgG1, kappa, L234A L235A, V domains shown, Humanized; also called VL2:VH2) VH: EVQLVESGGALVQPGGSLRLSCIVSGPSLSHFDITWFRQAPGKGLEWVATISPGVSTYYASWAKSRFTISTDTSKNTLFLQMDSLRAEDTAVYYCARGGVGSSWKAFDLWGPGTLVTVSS VL: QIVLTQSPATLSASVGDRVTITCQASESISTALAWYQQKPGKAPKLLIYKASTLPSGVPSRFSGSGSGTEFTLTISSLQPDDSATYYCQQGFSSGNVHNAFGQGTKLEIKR
0.882

What do we get for h48D2 VH1:VL5 (antibody, human IgG1, kappa, L234A L235A, V domains shown, Humanized; also called VL5:VH1) VH: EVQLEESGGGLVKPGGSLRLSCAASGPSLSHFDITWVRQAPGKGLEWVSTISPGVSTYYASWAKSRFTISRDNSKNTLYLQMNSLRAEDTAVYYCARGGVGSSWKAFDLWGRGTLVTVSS VL: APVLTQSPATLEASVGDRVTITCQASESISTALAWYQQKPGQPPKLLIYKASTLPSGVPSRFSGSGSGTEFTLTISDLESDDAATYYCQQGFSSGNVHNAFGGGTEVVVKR ?
20.2
